Record form. Attribute: MIC. Fill in for each entry.
System: E. fecium
assayText: Minimal Inhibitory Concentration (MIC) determination, 96 well plates
Assay type: cell-based, Enterococcus fecium
experimentalSetup: Enterococcus; HBI medium, 16 to 18 hours at 37°C; read-out: MIC (µg/ml) E. fecium
Give bare numbers, in µg/mL.

>>> df
                                   molecule  reportedvalue
0  Cc1ccc(Nc2cc(=O)n(CCCCN3CCN(c4cc5c(cc4F)c(=O)c(C(=O)O)cn5C4CC4)C[C@@H]3C)c(=O)[nH]2)cc1C           1.25
1  Cc1ccc(Nc2cc(=O)n(CCCCN3CCN(c4c(F)cc5c(=O)c(C(=O)O)cn(C6CC6)c5c4F)CC3)c(=O)[nH]2)cc1C           1.25
2  CCc1cc(Nc2cc(=O)n(CCCCN3CCN(c4c(F)cc5c(=O)c(C(=O)O)cn(CC)c5c4F)CC3)c(=O)[nH]2)ccc1C           1.25
3  CCc1cc(Nc2cc(=O)n(CCCCN3CCN(c4c(F)cc5c(=O)c(C(=O)O)cn(C6CC6)c5c4F)CC3C)c(=O)[nH]2)ccc1C (stereo not drawn)           1.25
4  CCc1cc(Nc2cc(=O)n(CCCCCN3CCOC4CN(c5c(F)cc6c(=O)c(C(=O)O)cn(CC)c6c5F)CC43)c(=O)[nH]2)ccc1C (stereo not drawn)           12.5
5  CCc1cc(Nc2cc(=O)n(CCCCCN3CCOC4CN(c5cc6c(cc5F)c(=O)c(C(=O)O)cn6C5CC5)CC43)c(=O)[nH]2)ccc1C (stereo not drawn)             25

Hi! Can you tell me MIC for each of these molecules?
1. CC1CN(c2c(F)cc3c(=O)c(C(=O)O)cn(C4CC4)c3c2F)CCN1CCCCn1c(=O)cc(Nc2ccc3c(c2)CCC3)[nH]c1=O (stereo not drawn)
2. CCc1cc(Nc2cc(=O)n(CCCCN3CCN(c4cc5c(cc4F)c(=O)c(C(=O)O)cn5C4CC4)CC3)c(=O)[nH]2)ccc1C.CS(=O)(=O)O
3. CCc1cc(Nc2cc(=O)n(CCCCCN3CCN(c4cc5c(cc4F)c(=O)c(C(=O)O)cn5C4CC4)CC3)c(=O)[nH]2)ccc1C
4. CCc1cc(Nc2cc(=O)n(CCCCCNC3CCN(c4cc5c(cc4F)c(=O)c(C(=O)O)cn5C4CC4)C3)c(=O)[nH]2)ccc1C (stereo not drawn)

### Response
0.937
2.5
1.25
40

Hi! Can you tell me MIC for each of these molecules?
1. CCc1cc(Nc2cc(=O)n(CCCCCN3CCC4CN(c5cc6c(cc5F)c(=O)c(C(=O)O)cn6C5CC5)CC43)c(=O)[nH]2)ccc1C (stereo not drawn)
2. CCc1cc(Nc2cc(=O)n(CCCCN3CCN(c4cc5c(cc4F)c(=O)c(C(=O)O)cn5-c4ccc(F)cc4F)CC3)c(=O)[nH]2)ccc1C

### Response
[12.5, 5]

---

System: B. subtilis
assayText: Minimal Inhibitory Concentration (MIC) determination, 96 well plates
Format: cell-based, Bacillus subtilis
experimentalSetup: Bacillus subtilis; HBI medium, 16 to 18 hours at 37°C; read-out: MIC (µg/ml) B. subtilis
Record form. Attribute: log10 MIC. Fill in for each entry.
// units: µg/mL (pre-log); metric: MIC; scale: log10

molecule	log10 MIC
CCc1cc(Nc2cc(=O)n(CCCCCN3CCC4CN(c5cc6c(cc5F)c(=O)c(C(=O)O)cn6C5CC5)CC43)c(=O)[nH]2)ccc1C (stereo not shown) [Compound 81]	0.10
Cc1ccc(Nc2cc(=O)n(CCCCN3CCN(c4c(F)cc5c(=O)c(C(=O)O)cn(C6CC6)c5c4F)CC3)c(=O)[nH]2)cc1C [Compound 101]	-0.63
CCc1cc(Nc2cc(=O)n(CCCCN3CCN(c4cc5c(cc4F)c(=O)c(C(=O)O)cn5C4CC4)C[C@@H]3C)c(=O)[nH]2)ccc1C [Compound 100]	-0.81
CCc1cc(Nc2cc(=O)n(CCCCN3CCN(c4cc5c(cc4F)c(=O)c(C(=O)O)cn5-c4ccc(F)cc4F)C[C@H]3C)c(=O)[nH]2)ccc1C [Compound 90]	-0.63
CCc1cc(Nc2cc(=O)n(CCCCCCCN3CCN(c4cc5c(cc4F)c(=O)c(C(=O)O)cn5C4CC4)CC3)c(=O)[nH]2)ccc1C [Compound 8]	-0.50
CCc1cc(Nc2cc(=O)n(CCCCCN3CCCC4CN(c5cc6c(cc5F)c(=O)c(C(=O)O)cn6C5CC5)CC43)c(=O)[nH]2)ccc1C (stereo not shown) [Compound 82]	0.10

Hi! Can you tell me log10 MIC for each of these molecules?
1. Cc1ccc(Nc2cc(=O)n(CCCCN3CCN(c4c(F)cc5c(=O)c(C(=O)O)cn(C6CC6)c5c4F)C[C@H]3C)c(=O)[nH]2)cc1C [Compound 98]
2. O=C(O)c1cn(C2CC2)c2cc(N3CCN(CCCCn4c(=O)cc(Nc5ccc6c(c5)CCC6)[nH]c4=O)CC3)c(F)cc2c1=O [Compound 67]
3. CCc1cc(Nc2cc(=O)n(CCCCN3CCN(c4cc5c(cc4F)c(=O)c(C(=O)O)cn5C4CC4)CC3)c(=O)[nH]2)ccc1C [Compound 2]
4. CCc1cc(Nc2cc(=O)n(CCCCN3CCOC4CN(c5cc6c(cc5F)c(=O)c(C(=O)O)cn6C5CC5)CC43)c(=O)[nH]2)ccc1C (stereo not shown) [Compound 87]
5. Cc1ccc(Nc2cc(=O)n(CCCCN3CCN(c4c(F)cc5c(=O)c(C(=O)O)cn(C6CC6)c5c4F)CC3C)c(=O)[nH]2)cc1C (stereo not shown) [Compound 94]
6. CCc1cc(Nc2cc(=O)n(CCCCCN3CCN(c4cc5c(cc4F)c(=O)c(C(=O)O)cn5C4CC4)CC3)c(=O)[nH]2)ccc1C [Compound 15]
7. O=C(O)c1cn(C2CC2)c2cc(N3CCN(CCCCn4c(=O)cc(NCc5ccc(Cl)c(Cl)c5)[nH]c4=O)CC3)c(F)cc2c1=O [Compound 68]
8. CCc1cc(Nc2cc(=O)n(CCCCN3CCN(c4cc5c(cc4F)c(=O)c(C(=O)O)cn5C4CC4)C(C)C3)c(=O)[nH]2)ccc1C (stereo not shown) [Compound 69]

### Response
[-0.50, -0.64, -0.81, -0.50, -0.81, -0.81, -0.02, -0.64]

Hi! Can you tell me log10 MIC for each of these molecules?
1. CCc1cc(Nc2cc(=O)n(CCCCCNC3CCN(c4cc5c(cc4F)c(=O)c(C(=O)O)cn5C4CC4)C3)c(=O)[nH]2)ccc1C (stereo not shown) [Compound 83]
2. CCn1cc(C(=O)O)c(=O)c2cc(F)c(N3CCNCC3)cc21 [nflxn, norfloxacin, reference compound]
3. CCc1cc(Nc2cc(=O)n(CCCCN3CCN(c4cc5c(cc4F)c(=O)c(C(=O)O)cn5CC)CC3)c(=O)[nH]2)ccc1C [Compound 1]
4. CCc1cccc(Nc2cc(=O)n(CCCCN3CCN(c4cc5c(cc4F)c(=O)c(C(=O)O)cn5C4CC4)CC3)c(=O)[nH]2)c1 [Compound 66]
5. CCc1cc(Nc2cc(=O)n(CCCCN3CCN(c4cc5c(cc4F)c(=O)c(C(=O)O)cn5-c4ccc(F)cc4F)CC3C)c(=O)[nH]2)ccc1C (stereo not shown) [Compound 89]
6. CCc1cc(Nc2cc(=O)n(CCCCN3CCN(c4cc5c(cc4F)c(=O)c(C(=O)O)cn5-c4ccc(F)cc4F)CC3)c(=O)[nH]2)ccc1C [Compound 12]
7. CCc1cc(Nc2cc(=O)n(CCCCN3CCN(c4cc5c(cc4F)c(=O)c(C(=O)O)cn5C4CC4)C[C@H]3C)c(=O)[nH]2)ccc1C [Compound 95]

### Response
1. 0.57
2. -0.20
3. -0.81
4. -0.50
5. -0.81
6. -0.81
7. -0.63

Hi! Can you tell me log10 MIC for each of these molecules?
1. CCc1cc(Nc2cc(=O)n(CCOCCN3CCN(c4cc5c(cc4F)c(=O)c(C(=O)O)cn5C4CC4)CC3)c(=O)[nH]2)ccc1C [Compound 11]
2. CCc1cc(Nc2cc(=O)n(CCCCN3CCN(c4nc5c(cc4F)c(=O)c(C(=O)O)cn5CC)CC3)c(=O)[nH]2)ccc1C [Compound 6]
3. Cc1ccc(Nc2cc(=O)n(CCCCN3CCN(c4cc5c(cc4F)c(=O)c(C(=O)O)cn5C4CC4)CC3)c(=O)[nH]2)cc1C [Compound 65]
4. CCc1cc(Nc2cc(=O)n(CCCCCN3CCOC4CN(c5c(F)cc6c(=O)c(C(=O)O)cn(CC)c6c5F)CC43)c(=O)[nH]2)ccc1C (stereo not shown) [Compound 85]

### Response
0.10
-0.81
-0.64
-0.50
